measurement_target: 5-HT2AR (Homo sapiens)
Construct: expressed in transfected cells; host or cells: Flp-In 293 T-Rex (tetracycline inducible)
Sequence (P28223 whole entry): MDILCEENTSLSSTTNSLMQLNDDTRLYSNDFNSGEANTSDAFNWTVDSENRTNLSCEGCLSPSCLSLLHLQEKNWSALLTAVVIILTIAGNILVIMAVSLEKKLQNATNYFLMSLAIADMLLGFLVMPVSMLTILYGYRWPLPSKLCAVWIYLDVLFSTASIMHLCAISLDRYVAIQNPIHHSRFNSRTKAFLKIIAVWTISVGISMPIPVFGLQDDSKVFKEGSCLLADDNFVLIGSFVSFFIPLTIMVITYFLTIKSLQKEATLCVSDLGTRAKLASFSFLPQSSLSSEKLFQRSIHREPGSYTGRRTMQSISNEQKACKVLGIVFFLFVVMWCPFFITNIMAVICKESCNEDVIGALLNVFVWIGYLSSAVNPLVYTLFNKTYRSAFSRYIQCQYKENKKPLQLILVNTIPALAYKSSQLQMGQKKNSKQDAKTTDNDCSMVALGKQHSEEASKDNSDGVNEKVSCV
test_description: Calcium flux assay (FLIPR, Fluo-4), 5-HT2AR stable cell line
Type: cell-based
experimental_parameters: bracketed value below EC50, read-out: 5-HT2AR pEC50 ± S.E.M (converted)
Decide using EC50 alone. Strictly below 300 nM: MET. Equal to or above 300 nM: NOT MET.

> print(dat)
                                    molecule      measurement.target  answer.label
 1  C[C@@H]1C=C(c2c[nH]c3ncccc23)CN(C)C1 [compound 33]  5-HT2AR (Homo sapiens)           MET
 2  C[C@@H]1C=C(c2cncc(Cl)c2)CN(C)C1 (stereo in doubt) [Compound 17]  5-HT2AR (Homo sapiens)       NOT MET
 3  CCCN1CC(c2c[nH]c3ncccc23)=C[C@H](C)C1 [Compound 24]  5-HT2AR (Homo sapiens)       NOT MET
 4  C[C@H]1C=C(c2c[nH]c3ncccc23)CNC1 [compound 39]  5-HT2AR (Homo sapiens)       NOT MET
 5  C[C@@H]1C=C(c2c[nH]c3ncccc23)CN(CC2CC2)C1 [compound 45]  5-HT2AR (Homo sapiens)       NOT MET
 6  C[C@@H]1C=C(c2c[nH]c3ncccc23)CN(Cc2cnco2)C1 [compound 47]  5-HT2AR (Homo sapiens)       NOT MET
 7  CCCN1CC(c2c[nH]c3ncccc23)=C[C@@H](C)C1 [Compound 23]  5-HT2AR (Homo sapiens)           MET
 8  CCCCCN1CC(c2cncc(Cl)c2)=C[C@@H](C)C1 [Compound 9]  5-HT2AR (Homo sapiens)       NOT MET
 9  C1=C(c2c[nH]c3ncccc23)CNCC1 [compound 49]  5-HT2AR (Homo sapiens)           MET
10  C[C@H]1C=C(c2c[nH]c3ncccc23)CN(CCCc2cnn(C)c2)C1 [compound 44]  5-HT2AR (Homo sapiens)           MET
11  CCCN1CC(c2cncc(Cl)c2)=C[C@H](C)C1 [Compound 16]  5-HT2AR (Homo sapiens)       NOT MET
12  CCCCCN1CC(c2cncc(Cl)c2)=C[C@H](C)C1 [Compound 10]  5-HT2AR (Homo sapiens)       NOT MET
13  CCCCN1CC(c2cncc(Cl)c2)=C[C@H](C)C1 [Compound 12]  5-HT2AR (Homo sapiens)       NOT MET
